Each recorded value in this set is attributed to the supplement of paper PMC10567573.

B1: SNAP91 (parent)
chain: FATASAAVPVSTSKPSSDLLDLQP

Variants of: B1
assay-name: protein stability index of a GFP-peptide fusion (GPS, HEK-293T) (PSI 1-6); higher = more stable;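 also: lentivirally expressed fusions sorted by FACS into six bins by GFP to DsRed ratio, PSI derived from sequencing read proportions per bin multiplied by bin number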
assay-setup: c terminus: a fixed tail appended
Tag: 1.0 if measured protein stability index is not below 4, 0.0 if it is.

Please review the following examples before continuing.
A6M :: 0.0
A6Q :: 0.0
T3F :: 0.0
A2H :: 0.0
S13N :: 0.0
A6G :: 0.0

Reported protein stability index reaches at least 4 for A4P ?
1.0

Now the variant A4S
0.0

Could you do the same for S11P , please?
0.0

P9L , same question.
0.0

And the next one, A4M ?
0.0
